tested on: Fibroblast; assay: Incucyte cell viability with human fibroblast; format: toxicity, cell-based; conditions: 12 h, 10 µM, compound concentration 10 uM, replicate number 2, timepoint 12 hours; also: unitless GR value; below 1 slowed growth and below 0 cell loss
Listed here are compounds together with their documented Growth Rate.

compound: O=C(O)c1n[nH]c2c1C[C@H]1C[C@@H]21
test system: Fibroblast
Growth Rate: 0.86
//
compound: CN(C)C/C=C/C(=O)Nc1ccc(C(=O)N2CCCC(Nc3ncc(Cl)c(-c4c[nH]c5ccccc45)n3)C2)cc1 (centres undefined)
test system: Fibroblast
Growth Rate: -0.33
//
compound: COc1cc2nc(N(C)CCCNC(=O)C3CCCO3)nc(N)c2cc1OC.Cl (centres undefined) [ALFUZOSIN HYDROCHLORIDE]
test system: Fibroblast
Growth Rate: 0.51
//
compound: Cc1ccccc1-c1cc(N2CCN(C)CC2)ncc1N(C)C(=O)C(C)(C)c1cc(C(F)(F)F)cc(C(F)(F)F)c1
test system: Fibroblast
Growth Rate: 0.31

###

tested on: HEK-293T; test: Incucyte cell viability with HEK293T; format: toxicity, cell-based; settings: human, 24 h, 10 µM, compound concentration 10 uM, replicate number 1, timepoint 24 hours; also: unitless GR value; below 1 slowed growth and below 0 cell loss
Please note: True applies when Growth Rate is 0.6 or greater, and False applies otherwise.

compound: COc1ccccc1N1CCN(CCCCNC(=O)c2ccc3ccccc3c2)CC1.Cl
category: False
--
compound: Cl.FC(F)(F)c1ccc(N2CCNCC2)nc1Cl
category: True
--
compound: CC[C@H]1CN2CCc3cc(OC)c(OC)cc3[C@@H]2C[C@@H]1C[C@H]1NCCc2cc(OC)c(OC)cc21
category: False
--
compound: Brc1c(N=C2NCCN2)ccc2nccnc12.O=C(O)C(O)C(O)C(=O)O
category: True
--
compound: CC(C)Oc1ccc(-c2c[nH]cc2CN(C)CCO)cc1
category: True
--
compound: Cc1noc(-c2ccc(-c3ccc(CC(=O)O)cc3)cc2)c1NC(=O)O[C@H](C)c1ccccc1Cl
category: True
--
compound: N#Cc1cc2c(OCC(O)CN3CCN(C(c4ccccc4)c4ccccc4)CC3)cccc2[nH]1 (racemic)
category: False
--
compound: Cn1cc(C(=O)OCC2CCN(CCNS(C)(=O)=O)CC2)c2ccccc21
category: False
--
compound: Cc1cc(C)cc([C@H]2c3cc(C)ccc3NC(=O)CN2C(=O)c2ccc(Br)s2)c1
category: True

###

Listed here are compounds together with their documented Growth Rate.
system: U2OS; experiment: Incucyte cell viability with U2OS; assay type: toxicity, cell-based; conditions: human, 0 h, 10 µM, compound concentration 10 uM, replicate number 1, timepoint 0 hours; also: unitless GR value; below 1 slowed growth and below 0 cell loss

compound: Nc1ncnc2c1ncn2[C@@H]1O[C@H](CO)[C@@H](O)[C@H]1O
Growth Rate: 0.54

compound: CCOC(=O)Nc1cc(-c2ccc(C)c(NS(C)(=O)=O)c2)nn2c(C)nnc12
Growth Rate: 0.25

compound: CO[C@H]1CNC[C@@H](OCC2CCC(F)(F)CC2)[C@@H]1Nc1ncc(-c2cncc(C)c2)c2cc(C)c(=O)[nH]c12
Growth Rate: -0.36

compound: OCCCNc1cc(-c2ccnc(Nc3cccc(Cl)c3)n2)ccn1
Growth Rate: -0.27

compound: Cc1c(CC(=O)O)c2cccnc2n1Cc1ccc(S(C)(=O)=O)cc1C(F)(F)F
Growth Rate: -0.75

compound: O=C(Nc1cc(-c2cn[nH]c2)ccc1N1CCOCC1)c1ccc(-c2ccc3ncccc3c2)o1
Growth Rate: 0.53

compound: CC(C)(C)c1ccc(-c2coc3ccc(-c4cn[nH]c4)nc23)cc1
Growth Rate: 0.4

compound: CCC(=O)N1CC[C@H](Nc2ncnc3c2CN(c2cnc(OC)c(C(F)(F)F)c2)CC3)C1
Growth Rate: 0.57

compound: CCNC(=O)[C@H]1O[C@@H](n2cnc3c(N)nc(NCCc4ccc(CCC(=O)O)cc4)nc32)[C@H](O)[C@@H]1O.Cl
Growth Rate: -0.07

compound: CC(=O)c1ccc2c(c1)[C@@H]1C=CC[C@@H]1[C@H](c1cc3c(cc1Br)OCO3)N2
Growth Rate: 0.33

compound: Cl.O=C1CC[C@@]2(O)[C@H]3Cc4ccc(O)c5c4[C@@]2(CCN3CC2CC2)[C@H]1O5 [NALTREXONE HYDROCHLORIDE]
Growth Rate: 0.86

compound: CCCCCCCC/C=C\CCCCCCCC(N)=O [OLEAMIDE]
Growth Rate: 0.24

compound: Cl.NCCc1ccc(O)c(O)c1 [DOPAMINE HYDROCHLORIDE]
Growth Rate: 0.15

compound: CN(c1ncccc1CNc1ccnc(-c2nc3c(F)c(Cl)ccc3[nH]2)n1)S(C)(=O)=O
Growth Rate: -0.62

compound: C[N+]1(C)[C@@H]2C[C@@H](OC(=O)C(O)(c3cccs3)c3cccs3)C[C@H]1[C@@H]1O[C@@H]12.O.[Br-] [TIOTROPIUM BROMIDE]
Growth Rate: 0.04

compound: COC(=O)[C@H]1[C@H]2C[C@H]3c4[nH]c5ccccc5c4CCN3C[C@H]2CC[C@@H]1O.Cl [RAUWOLSCINE HYDROCHLORIDE]
Growth Rate: -0.57

compound: CN1C[C@@H](NS(=O)(=O)N(C)C)C[C@@H]2c3cccc4c3c(cn4C)C[C@H]21.Cl [MESULERGINE HYDROCHLORIDE]
Growth Rate: 0.87

compound: COC(c1ccccc1)(c1ccccc1)[C@H](Oc1nc(C)cc(C)n1)C(=O)O
Growth Rate: -0.03

compound: COC1(C[S@@+]([O-])c2ccccc2)CCN(CCc2c[nH]c3ccc(F)cc23)CC1
Growth Rate: 0.42

compound: O=S(=O)(c1ccccc1)c1cnc2c(N3CCNCC3)cccc2c1 [INTEPIRDINE]
Growth Rate: -0.78

compound: O=C(NCCNCC(O)COc1ccc(O)cc1)N1CCOCC1.O=C(NCCNCC(O)COc1ccc(O)cc1)N1CCOCC1.O=C(O)/C=C/C(=O)O (stereo not drawn) [XAMOTEROL FUMARATE]
Growth Rate: 0.31

compound: Cc1cc(CN)cc(C)c1-c1ncn(C)c1-c1cncn1C
Growth Rate: -0.39

compound: CN(C(=O)/C=C/c1ccoc1)[C@@H]1CC[C@@]2(O)[C@H]3Cc4ccc(O)c5c4[C@@]2(CCN3CC2CC2)[C@H]1O5
Growth Rate: 0.56

compound: O=C1[C@H](Cc2ccc(O)cc2)N2C(=O)CCN(C(=O)NCc3ccccc3)[C@H]2CN1Cc1cccc2ccccc12
Growth Rate: -0.65

compound: CN1C[C@H](C(=O)N[C@]2(C)O[C@@]3(O)[C@@H]4CCCN4C(=O)[C@H](Cc4ccccc4)N3C2=O)C[C@@H]2c3cccc4[nH]cc(c34)C[C@H]21.CS(=O)(=O)O [DIHYDROERGOTAMINE MESYLATE]
Growth Rate: 0.01

compound: CCC(=O)NC[C@@H]1C[C@H]1c1cccc2c1CCO2
Growth Rate: -0.37

compound: Nc1nccc(-c2ccn3c(N)nccc23)n1
Growth Rate: 0.63

compound: CC(C)Cc1ccc([C@@H](C)C(=O)NS(C)(=O)=O)cc1
Growth Rate: -0.7

compound: CCc1nnc(NS(=O)(=O)c2ccc(NC(=S)NC(=O)/C=C/c3ccc(F)cc3)cc2)s1
Growth Rate: 0.07

compound: CCCCC[C@H](O)/C=C/[C@H]1CCC(=O)[C@@H]1CCCCCCC(=O)O
Growth Rate: 0.47

compound: CCOc1ccc(Cc2nc3cc(C(=O)N(CC)CC)ccc3n2CC2CCCCC2)cc1
Growth Rate: -0.21

compound: O=C(NCCO)c1cccc(-c2cc(Nc3ccc(OC(F)(F)F)cc3)ncn2)c1
Growth Rate: -0.12

compound: Cc1ccc(O)c([C@H](CCN(C(C)C)C(C)C)c2ccccc2)c1.O=C(O)C(O)C(O)C(=O)O [TOLTERODINE TARTRATE]
Growth Rate: -0.73

###

system: Fibroblast; assay: Incucyte cell viability with human fibroblast; format: toxicity, cell-based; conditions: 0 h, 10 µM, compound concentration 10 uM, replicate number 2, timepoint 0 hours; also: unitless GR value; below 1 slowed growth and below 0 cell loss
Listed here are compounds together with their documented Growth Rate.

compound: COc1cc2nc(N3CCN(C(=O)C4CCCO4)CC3)nc(N)c2cc1OC.Cl.O.O (configuration not stated) [TERAZOSIN HYDROCHLORIDE]
test system: Fibroblast
Growth Rate: 0.43
--
compound: Cc1ccccc1C#Cc1ccc(CCC(=O)O)cc1
test system: Fibroblast
Growth Rate: 0.93
--
compound: CC(C)n1cc(-c2ccc(N3CCN(C)CC3)c(NC(=O)c3ccc(-c4ccncc4)o3)c2)cn1
test system: Fibroblast
Growth Rate: 0.57
--
compound: Cc1cccc(NC(=O)CN2CCC(c3ccccn3)CC2)c1.Cl.Cl
test system: Fibroblast
Growth Rate: 0.72
--
compound: CN1[C@@H]2CC[C@H]1C[C@@H](OC(=O)C(CO)c1ccccc1)C2 (some centres not stated)
test system: Fibroblast
Growth Rate: -0.32
--
compound: O=C1Nc2ccc(I)cc2/C1=C/c1cc(Br)c(O)c(Br)c1
test system: Fibroblast
Growth Rate: 0.15
--
compound: CCCC(CCC)C(=O)O
test system: Fibroblast
Growth Rate: 0.88
--
compound: COc1ccc2c(c1OCc1ccccc1)C[C@@H](C(=O)O)N(C(=O)C(c1ccccc1)c1ccccc1)C2
test system: Fibroblast
Growth Rate: 0.27
--
compound: CCCCC[C@H](O)/C=C/[C@H]1CCC(=O)[C@@H]1CCCCCCC(=O)O
test system: Fibroblast
Growth Rate: -0.08
--
compound: Cc1ccccc1-c1cc(N2CCN(C)CC2)ncc1N(C)C(=O)C(C)(C)c1cc(C(F)(F)F)cc(C(F)(F)F)c1
test system: Fibroblast
Growth Rate: 0.68
--
compound: O=C(O)c1cccc(/C=C2/C[C@@H]3[C@@H](/C=C/[C@H](O)C4CCCCC4)[C@H](O)C[C@@H]3O2)c1
test system: Fibroblast
Growth Rate: -0.06
--
compound: NC[C@H](O)c1ccc(O)c(O)c1.O.O=C(O)C(O)C(O)C(=O)O
test system: Fibroblast
Growth Rate: 0.62
--
compound: CSc1nc(NC2CCCC2)c([N+](=O)[O-])c(NC2CCCC2)n1
test system: Fibroblast
Growth Rate: 0.9
--
compound: Cc1noc(C)c1-c1cnc2c(-c3ccc(C(=O)O)cc3)cn([C@@H](C)c3ccccn3)c2c1
test system: Fibroblast
Growth Rate: 0.17
--
compound: CNCCN1CCC(c2cc(CN(C)C(=O)c3cccc(Oc4ccccc4)c3)ccn2)CC1
test system: Fibroblast
Growth Rate: 0.9
--
compound: Cc1c(C(=O)Nc2ccc(N3C[C@@H](C)O[C@@H](C)C3)nc2)cccc1-c1ccc(OC(F)(F)F)cc1
test system: Fibroblast
Growth Rate: 0.63
--
compound: CC(=O)c1cc(-c2ccccc2OCC2CC2)c2ncccn12
test system: Fibroblast
Growth Rate: 0.39
--
compound: CC(=O)NCC(=O)N1[C@@H]2CC[C@H]1c1ccc(Nc3ncc(C(F)(F)F)c(NC4CCC4)n3)cc12
test system: Fibroblast
Growth Rate: -0.37
--
compound: O=C(N[C@@H]1CC[C@@H](c2cccc(F)c2F)CN(CC(F)(F)F)C1=O)N1CCC(n2c(=O)[nH]c3ncccc32)CC1
test system: Fibroblast
Growth Rate: 0.95
--
compound: Cc1ccc2c(c1CCC(=O)O)CC[C@@H](NS(=O)(=O)c1ccc(Cl)cc1)C2
test system: Fibroblast
Growth Rate: 0
--
compound: COc1cccc2c1c(NS(=O)(=O)c1ccc(Cl)s1)nn2Cc1cccc(CNC(=O)C(C)(C)O)c1
test system: Fibroblast
Growth Rate: 0.35
--
compound: OCCCNc1cc(-c2ccnc(Nc3cccc(Cl)c3)n2)ccn1
test system: Fibroblast
Growth Rate: -0.55
--
compound: CC(C)c1c(NC(=O)Nc2ccc(Cl)cc2)c(=O)n(-c2ccccc2)n1C
test system: Fibroblast
Growth Rate: 0.39
--
compound: COc1ccncc1C(=O)NC(=O)Nc1ccc(-c2ccccc2)c(C(F)(F)F)c1
test system: Fibroblast
Growth Rate: 0.72
--
compound: Cc1c(Cc2ccc3ccccc3n2)c2cc(F)ccc2n1CC(=O)O
test system: Fibroblast
Growth Rate: 0.31
--
compound: CCCCCCCC/C=C\CCCCCCCC(N)=O [OLEAMIDE]
test system: Fibroblast
Growth Rate: 0.02
--
compound: Cl.NCCc1ccc(O)c(O)c1 [DOPAMINE HYDROCHLORIDE]
test system: Fibroblast
Growth Rate: 0.55
--
compound: CNc1nc(NCc2ncccn2)c2c(-c3ccc4ncccc4c3)c[nH]c2n1
test system: Fibroblast
Growth Rate: 0.3
--
compound: Cc1cc(-c2ccc3c(c2)CC[C@H]3N2CC3(CCN(C(=O)Cc4cn5cc(C)sc5n4)CC3)C2)ncn1
test system: Fibroblast
Growth Rate: 0.62
--
compound: N[C@@]1(C(=O)O)CC[C@H]2[C@H](C(=O)O)[C@H]21
test system: Fibroblast
Growth Rate: 0.85
--
compound: CN(C)CCn1cc(S(=O)(=O)c2cccc(F)c2)c2cccnc21.Cl.Cl
test system: Fibroblast
Growth Rate: 0.07
--
compound: COc1ccc(C(=O)N2CCN(C(=O)/C=C/c3ccc(Br)cc3)CC2)cc1
test system: Fibroblast
Growth Rate: 0.76
--
compound: O=C1NC(NC23CC4CC(CC(C4)C2)C3)=N/C1=C\c1ccc2ncsc2c1
test system: Fibroblast
Growth Rate: 0.36
--
compound: CC(C)OC(=O)N1CCC(Oc2ncnc3c2cnn3-c2ccc(S(C)(=O)=O)cc2F)CC1
test system: Fibroblast
Growth Rate: -0.13
--
compound: CC1(C)SSC(C)(C)[C@@H](NC(=O)[C@@H](N)Cc2ccc(O)cc2)C(=O)NCC(=O)N[C@@H](Cc2ccccc2)C(=O)N[C@H]1C(=O)O.O=C(O)C(F)(F)F
test system: Fibroblast
Growth Rate: 0.08
--
compound: COCCn1c(C)c(C)s/c1=N\C(=O)C1C(C)(C)C1(C)C
test system: Fibroblast
Growth Rate: 0.2
--
compound: Nc1nc(Nc2ccccc2)nc2c1ncn2[C@@H]1O[C@H](CO)[C@@H](O)[C@H]1O
test system: Fibroblast
Growth Rate: 0.2
